src = patent US10295551B2

# tested-system: rI-FABP (SEQ ID NO: 3) variant L2P14 F7-KR14 - K27C, KR14-18G 27C 31M 72A (Rattus norvegicus, UniProt P02693, G32M/K101R/K126R/K17R/K21R/K28C/K30R/K38R/K47R/K51R/K89R/K8R/K93R/K95R/L73A/M19G)
# Sequence (P02693 with tags, fused parts or gaps K8R/K17R/M19G/K21R/K28C/K30R/G32M/K38R/K47R/K51R/L73A/K89R/K93R/K95R/K101R/K126R): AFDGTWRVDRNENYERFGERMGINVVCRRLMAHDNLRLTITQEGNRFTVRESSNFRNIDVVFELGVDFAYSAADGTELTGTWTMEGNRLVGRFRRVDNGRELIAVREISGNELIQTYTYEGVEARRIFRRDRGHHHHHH
# protocol: bilirubin binding to L2P14F7-KR14-K27C probe
# test-settings: Table 5, acrylodan
pKd: −log10 of the molar value.

smiles-entry: C=CC1=C(C)/C(=C/c2[nH]c(Cc3[nH]c(/C=C4\NC(=O)C(C)=C4C=C)c(C)c3CCC(=O)O)c(CCC(=O)O)c2C)NC1=O
pKd: 6.28

---

# tested-system: rI-FABP (SEQ ID NO: 3) variant L19CP10C7, MGI-14R 18L 27C 71I 73F 117D (Rattus norvegicus, UniProt P02693, A74F/K28C/L73A/M19L/S72I/Y118D/Y15R)
# Construct: 6xHis (C)
# Sequence (P02693 with tags, fused parts or gaps Y15R/M19L/K28C/S72I/L73A/A74F/Y118D): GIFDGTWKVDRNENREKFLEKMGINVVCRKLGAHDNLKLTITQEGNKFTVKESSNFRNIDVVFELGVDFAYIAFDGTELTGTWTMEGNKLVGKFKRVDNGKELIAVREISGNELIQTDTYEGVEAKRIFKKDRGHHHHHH
# protocol: fatty acid binding to L19CP10C7
pKd: −log10 of the molar value.
// values below are reported pKd

compound: CCCCCCCC/C=C\CCCCCCCC(=O)O [Oleate 18:1 (n-9), Oleate]
pKd: 8.92

compound: CCCCC/C=C\C/C=C\CCCCCCCC(=O)O [Linoleate 18:2 (n-6), Linoleate]
pKd: 9.10

---

# tested-system: rI-FABP (SEQ ID NO: 3) variant L24P19 C7 K27K 30C, 14R 18L 30C 38V 60R 73F 106C 115R 117D (Rattus norvegicus, UniProt P02693, A74F/L31C/L39V/L73A/M19L/Q116R/R107C/V61R/Y118D/Y15R)
# Sequence (P02693 with tags, fused parts or gaps Y15R/M19L/L31C/L39V/V61R/L73A/A74F/R107C/Q116R/Y118D): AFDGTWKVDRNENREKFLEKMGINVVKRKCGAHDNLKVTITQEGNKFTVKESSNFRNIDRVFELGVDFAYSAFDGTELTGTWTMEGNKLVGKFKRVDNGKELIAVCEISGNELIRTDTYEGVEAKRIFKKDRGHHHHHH
# protocol: bilirubin binding to L24P19C7 30C probe
# test-settings: Table 5, acrylodan

smiles-entry: C=CC1=C(C)/C(=C/c2[nH]c(Cc3[nH]c(/C=C4\NC(=O)C(C)=C4C=C)c(C)c3CCC(=O)O)c(CCC(=O)O)c2C)NC1=O
unit-text: nM
Kd: 26
